These entries and their values trace back to patent US20190054150A1.

target: MCR5 (human, UniProt P33032 1-325); test: cell-based or functional assay
Sequence (P33032 whole entry): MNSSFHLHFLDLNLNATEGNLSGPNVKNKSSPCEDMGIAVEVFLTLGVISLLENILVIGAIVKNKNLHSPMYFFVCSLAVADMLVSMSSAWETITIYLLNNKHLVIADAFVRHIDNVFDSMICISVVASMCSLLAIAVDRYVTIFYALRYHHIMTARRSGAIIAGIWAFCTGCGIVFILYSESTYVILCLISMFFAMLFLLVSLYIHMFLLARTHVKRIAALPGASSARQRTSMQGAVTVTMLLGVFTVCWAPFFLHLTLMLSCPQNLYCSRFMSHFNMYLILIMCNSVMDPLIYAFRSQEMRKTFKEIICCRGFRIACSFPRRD
Square brackets hold non-standard residues; d marks the D form. Ends that are not written are not given here. Nle = CCCC[C@H](N)C(=O)O
I'd appreciate it if you could supply MCR5 EC50 (nM); cAMP production, LANCE cAMP assay, CHO-MCR5 cells, cell pool C values for the items below.
Numeric answer only, unit nM assumed.

State its MCR5 EC50 (nM); cAMP production, LANCE cAMP assay, CHO-MCR5 cells, cell pool C for this binder: SYSMEHFRWGKPVGKKAAAVKVYPSYS[Nle]EH[dF]RWGKPV [ACTH1-24-point-3-5-NDP-α-MSH] 25

Determine from records and report MCR5 EC50 (nM); cAMP production, LANCE cAMP assay, CHO-MCR5 cells, cell pool C for SYSMEHFRWGKPVGKKAAAVKVYPGGGGSGGGGSSYS[Nle]EH[dF]RWGKPV (ends and bridges not checked) [ACTH1-24-point-3-5-10aa-NDP-α-MSH] 16

Look up MCR5 EC50 (nM); cAMP production, LANCE cAMP assay, CHO-MCR5 cells, cell pool C of SYSMEHFRWGKPVGKKAAAVKVYPGGGGSGGSYS[Nle]EH[dF]RWGKPV (ends and bridges not checked) [ACTH1-24-point-3-5-7aa-NDP-α-MSH] and report it. 8.5

Look up and report measured MCR5 EC50 (nM); cAMP production, LANCE cAMP assay, CHO-MCR5 cells, cell pool C for this entry: SYSMEHFRWGKPVGAARRPVKVYPGGGGSGGSYS[Nle]EH[dF]RWGKPV (ends and bridges not checked) [ACTH1-24-point-1-2-7aa-NDP-α-MSH] 10

Return the recorded MCR5 EC50 (nM); cAMP production, LANCE cAMP assay, CHO-MCR5 cells, cell pool C value; entry: SYSMEHFRWGKPVGKKRRPVKVYPGGGGSGGGGSSYS[Nle]EH[dF]RWGKPV (ends and bridges not checked) [ACTH1-24-linker-linker-NDP-α-MSH] 9.6

Using known records, supply MCR5 EC50 (nM); cAMP production, LANCE cAMP assay, CHO-MCR5 cells, cell pool C for SYSMEHFRWGKPVGKKRRPVKVYPSYS[Nle]EH[dF]RWGKPV (ends and bridges not checked) [ACTH1-24-NDP-α-MSH] 24

Identify measured MCR5 EC50 (nM); cAMP production, LANCE cAMP assay, CHO-MCR5 cells, cell pool C associated with SYSMEHFRWGKPVGKKRRPVKVYPGGGSSYS[Nle]EH[dF]RWGKPV (ends and bridges not checked) [ACTH1-24-4aa-NDP-α-MSH] 9.3

Give the measured MCR5 EC50 (nM); cAMP production, LANCE cAMP assay, CHO-MCR5 cells, cell pool C for SYSMEHFRWGKPVGAARRPVKVYPSYS[Nle]EH[dF]RWGKPV (ends and bridges not checked) [ACTH1-24-point-1-2-NDP-α-MSH] 21

Please report MCR5 EC50 (nM); cAMP production, LANCE cAMP assay, CHO-MCR5 cells, cell pool C for the following binder: SYSMEHFRWGKPVGKKRRPVKVYPGGGGSGGSYS[Nle]EH[dF]RWGKPV (ends and bridges not checked) [ACTH1-24-7aa-NDP-α-MSH] 13
